# credit: patent US12617779B2

test: Evaluation of conversion rate to active form in buffer solution (Experimental Example 1); assay type: physicochemical; settings: pH 5, 37° C., up to 2 or 3 hours
Structures can show the parent of a compound that is named as a salt.
Quantity name: Stability in buffer solution at pH 5

Would you please look over these solved cases?
| Compound | Stability in buffer solution at pH 5 |
| --- | --- |
| CN1CC[C@H](c2c(OC(=O)N(Cc3ccccc3)CC3CCCCN3)cc(O)c3c(=O)cc(-c4ccccc4Cl)oc23)[C@H](O)C1 (stereo partly drawn) | stable |
| CN1CC[C@H](c2c(OC(=O)N(CCF)CC3CCCCN3)cc(O)c3c(=O)cc(-c4ccccc4Cl)oc23)[C@H](O)C1 (stereo partly drawn) | stable |
| CC(C)N(CC1CCCCN1)C(=O)Oc1cc(O)c2c(=O)cc(-c3ccccc3Cl)oc2c1[C@H]1CCN(C)C[C@H]1O (stereo partly drawn) | stable |
| CCN(CC1CCCCN1)C(=O)Oc1cc(O)c2c(=O)cc(-c3ccccc3Cl)oc2c1[C@H]1CCN(C)C[C@H]1O (stereo partly drawn) [Example 7, dihydrochloride] | stable |
| CN1CC[C@H](c2c(OC(=O)N(C)CCN)cc(O)c3c(=O)cc(-c4ccccc4Cl)oc23)[C@H](O)C1 [Comparative Example 13, reference compound] | unstable |

Pending compound:
Task item: Sample CN1CC[C@H](c2c(O)cc(O)c3c(=O)cc(-c4ccccc4Cl)oc23)[C@H](OC(=O)[C@@H](N)CO)C1 [Comparative Example 9, reference compound] — what was its Stability in buffer solution at pH 5?
Reply: unstable
